Reported inhibition at 10 µM values follow for various molecules
Target: zebrafish HDAC10 (Danio rerio, UniProt F1QCV2)
Sequence (F1QCV2 1-675): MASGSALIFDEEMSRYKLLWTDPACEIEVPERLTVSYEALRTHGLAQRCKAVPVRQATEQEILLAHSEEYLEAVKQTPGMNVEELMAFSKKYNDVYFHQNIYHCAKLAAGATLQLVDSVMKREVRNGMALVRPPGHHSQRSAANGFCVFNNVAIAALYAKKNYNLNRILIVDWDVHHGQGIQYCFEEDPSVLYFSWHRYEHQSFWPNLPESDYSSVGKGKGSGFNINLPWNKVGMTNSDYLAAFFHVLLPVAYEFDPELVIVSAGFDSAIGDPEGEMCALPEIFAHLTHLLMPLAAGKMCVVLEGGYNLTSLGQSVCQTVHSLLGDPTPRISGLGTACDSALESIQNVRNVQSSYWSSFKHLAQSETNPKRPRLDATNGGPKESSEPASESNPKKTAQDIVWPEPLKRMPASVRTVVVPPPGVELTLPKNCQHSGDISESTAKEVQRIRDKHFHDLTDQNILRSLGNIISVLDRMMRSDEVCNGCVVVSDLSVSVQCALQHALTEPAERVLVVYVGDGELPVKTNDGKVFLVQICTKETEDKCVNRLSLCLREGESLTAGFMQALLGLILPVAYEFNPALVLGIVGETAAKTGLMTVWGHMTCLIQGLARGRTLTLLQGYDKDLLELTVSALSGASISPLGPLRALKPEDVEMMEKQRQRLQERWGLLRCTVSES
Assay: Zebrafish HDAC10 assay (zHDAC10), Ac-spermidine-AMC substrate
Format: biochemical
Settings: at 10 μM; read-out: zHDAC10 percent enzyme inhibition
The reply should be a number in %, with the unit left off.

// below: answered molecules
Molecule: O=C(NO)C1CCN(CC(c2ccccc2)c2ccccc2)CC1 [DH40]
Observable: inhibition at 10 µM
Readout Unit: %
Measured Value: 27
//
Molecule: O=C(NO)C1CCN(CCCc2ccccc2)CC1 [DH53]
Observable: inhibition at 10 µM
Readout Unit: %
Measured Value: 68
//
Molecule: O=C(NO)C1CCN(Cc2ccc(-c3ccccc3)cc2)CC1 [DH35]
Observable: inhibition at 10 µM
Readout Unit: %
Measured Value: 69
//
Molecule: O=C(NO)C1CCN(CCc2cccc(Br)c2)CC1 [DH71]
Observable: inhibition at 10 µM
Readout Unit: %
Measured Value: 61
//
Molecule: O=C(NO)C1CCN(CCc2ccccc2)CC1 [DH22]
Observable: inhibition at 10 µM
Readout Unit: %
Measured Value: 80
//
Molecule: O=C(NO)C1CCN(Cc2ccccc2)CC1 [DH25]
Observable: inhibition at 10 µM
Readout Unit: %
Measured Value: 50

# input for lookup
Quick check: inhibition at 10 µM of O=C(NO)C1CCN(CCc2ccc(Br)cc2)CC1 [DH67] ? 67
